Assay: Inhibition of RANKL/M-CSF-induced osteoclastogenesis in C57/BL6 mouse primary BMDM assessed as reduction in TRAP activity using pNPP as substrate after 2 days by colorimetric assay
Format: functional
Lab note: anything with inhibition (INH) at or over 40% counts as met; the rest go in not met.

Check if inhibition (INH) >= 40% (inclusive). Item: O=C(O)c1cc(O)c2c(c1)C(=O)c1cccc(O)c1C2=O [RHEIN]
met

Is inhibition (INH) at least 40%? Consider CC1CCN(C(=O)c2cc(O)c3c(c2)C(=O)c2cccc(O)c2C3=O)CC1
not met

Given the entry CC(=O)Oc1cccc2c1C(=O)c1c(OC(C)=O)cc(C(=O)Nc3ccc(C)c(Cl)c3)cc1C2=O , answer whether its inhibition (INH) meets or surpasses 40%.
not met

Textbook exercise: given the entry O=C1c2cccc(O)c2C(=O)c2c(O)cc(C(=O)N3CCC(CO)CC3)cc21 , state whether its inhibition (INH) is greater than or equal to 40%.
met

Evaluate O=C1c2cccc(O)c2C(=O)c2c(O)cc(C(=O)N3CCC(N4CCOCC4)CC3)cc21 : inhibition (INH) at minimum 40%?
met

Threshold query (inhibition (INH) >= 40%) on Cc1cc(O)c2c(c1)C(=O)c1cc(O)cc(O)c1C2=O [EMODIN]
met

Record CN1CCN(C(=O)c2cc(O)c3c(c2)C(=O)c2cccc(O)c2C3=O)CC1 ; criterion: inhibition (INH) no lower than 40%. Met?
not met

Could you verify whether the entry CC(C)(O)C1CCN(C(=O)c2cc(O)c3c(c2)C(=O)c2cccc(O)c2C3=O)CC1 shows inhibition (INH) of no less than 40%?
met

* * *

Assay: Cytotoxicity against C57/BL6 mouse primary BMDM assessed as cell viability at 5 uM after 2 days in presence of M-CSF by MTT assay relative to control
Format: toxicity
Conditions: primary bone marrow-derived macrophages (BMDM), read-out: Activity
MEASURED ENDPOINT: viability at 48 h, 5 µM (%)
Reply with just the number (in %).

Complete the entry with viability at 48 h, 5 µM for O=C(NCCN1CCOCC1)c1cc(O)c2c(c1)C(=O)c1cccc(O)c1C2=O
15

Tell us which viability at 48 h, 5 µM value is on record for Cc1ccc(NC(=O)c2cc(O)c3c(c2)C(=O)c2cccc(O)c2C3=O)cc1
62

Check the records and state viability at 48 h, 5 µM for CC(=O)Oc1cccc2c1C(=O)c1c(OC(C)=O)cc(C(=O)Nc3ccc(C)cc3)cc1C2=O
28

Give a short answer stating reported viability at 48 h, 5 µM for CC(=O)Oc1cccc2c1C(=O)c1c(OC(C)=O)cc(C(=O)Nc3ccc(C(F)(F)F)cc3Cl)cc1C2=O .
17

Could you please provide reported viability at 48 h, 5 µM for O=C(Nc1ccccc1)c1cc(O)c2c(c1)C(=O)c1cccc(O)c1C2=O ? Thanks!
53

Answer with the recorded viability at 48 h, 5 µM of O=C1c2cccc(O)c2C(=O)c2c(O)cc(C(=O)N3CCC(CO)CC3)cc21 only.
79

Return the recorded viability at 48 h, 5 µM value; entry: CN1CCN(C(=O)c2cc(O)c3c(c2)C(=O)c2cccc(O)c2C3=O)CC1
122

Please list viability at 48 h, 5 µM recorded for the compound CC(=O)Oc1cccc2c1C(=O)c1c(OC(C)=O)cc(C(=O)Nc3cc(C(F)(F)F)ccn3)cc1C2=O
37

Provide only the value of recorded viability at 48 h, 5 µM for CC(=O)Oc1cccc2c1C(=O)c1c(OC(C)=O)cc(C(=O)Nc3ccc(C(F)(F)F)cc3)cc1C2=O
51

In one line, give reported viability at 48 h, 5 µM of the entry CCN1CCN(C(=O)c2cc(O)c3c(c2)C(=O)c2cccc(O)c2C3=O)CC1 .
24

Supply recorded viability at 48 h, 5 µM for CC(=O)Oc1cccc2c1C(=O)c1c(OC(C)=O)cc(C(=O)Nc3ccccc3)cc1C2=O here.
28

Using known records, supply viability at 48 h, 5 µM for O=C1c2cccc(O)c2C(=O)c2c(O)cc(C(=O)N3CCC(N4CCOCC4)CC3)cc21
92

Look up and state reported viability at 48 h, 5 µM for CC(=O)Oc1cccc2c1C(=O)c1c(OC(C)=O)cc(C(=O)N3CCC(C)CC3)cc1C2=O
8

Supply viability at 48 h, 5 µM value. Item: CC1CCN(C(=O)c2cc(O)c3c(c2)C(=O)c2cccc(O)c2C3=O)CC1
103

Please report viability at 48 h, 5 µM for the following compound: Cc1cc(O)c2c(c1)C(=O)c1cc(O)cc(O)c1C2=O
109

Specify reported viability at 48 h, 5 µM for the compound shown: CC(=O)Oc1cccc2c1C(=O)c1c(OC(C)=O)cc(C(=O)Nc3ccc(C(F)(F)F)cn3)cc1C2=O
35

Provide one value: measured viability at 48 h, 5 µM of O=C(Nc1ccc(C(F)(F)F)cn1)c1cc(O)c2c(c1)C(=O)c1cccc(O)c1C2=O
49

Tell us which viability at 48 h, 5 µM value is on record for CC(C)(O)C1CCN(C(=O)c2cc(O)c3c(c2)C(=O)c2cccc(O)c2C3=O)CC1
92

Quote viability at 48 h, 5 µM reported for CC(=O)Oc1cccc2c1C(=O)c1c(OC(C)=O)cc(C(=O)Nc3ccc(C)c(Cl)c3)cc1C2=O please.
75

Report measured viability at 48 h, 5 µM; entry is O=C(O)c1cc(O)c2c(c1)C(=O)c1cccc(O)c1C2=O
97

Tell us which viability at 48 h, 5 µM value is on record for O=C(Nc1ccc(C(F)(F)F)cc1Cl)c1cc(O)c2c(c1)C(=O)c1cccc(O)c1C2=O
17

Read off the recorded viability at 48 h, 5 µM for O=C(Nc1ccc(C(F)(F)F)cc1)c1cc(O)c2c(c1)C(=O)c1cccc(O)c1C2=O
57
